The measurements presented in this section are drawn from patent US20260241012A1.

# TARGET_OR_SYSTEM: N-terminal HiBiT tagged BCL6 (Homo sapiens, UniProt P41182)
# Construct: expressed in transfected cells; host or cells: HT1080 (ATCC CCL-121), stably transduced with lentivirus pLV-UBC-N-HiBiT-BCL6-PGK-puro
# EXPERIMENT_DESCRIPTION: HiBiT based degradation assay
# Type: cell-based
# CONDITION_NOTES: HT1080 cells expressing N-terminal HiBiT tagged BCL6; 5 hours of incubation; four-parameter logistic model; read-out: EC50 (5 hr)
Catalogue of compounds with associated DC50

[[record]]
compound = "CNC(=O)COc1cc2cc(Nc3cc(N4CCC(CN5CCN(c6ccc7c(C8CCC(=O)NC8=O)nn(C)c7c6)CC5)CC4)ncc3Cl)cnc2n(C(C)C)c1=O (stereo not drawn)"
assay_result = "10 to 100 nM"

[[record]]
compound = "CNC(=O)COc1cc2cc(Nc3nc(N4CCC(CN5CCN(c6cccc7c(C8CCC(=O)NC8=O)nn(C)c67)C[C@H]5C)CC4)ncc3Cl)cnc2n(C(C)C)c1=O (stereo partly drawn) [Compound 192b]"
assay_result = "10 to 100 nM"

[[record]]
compound = "CNC(=O)COc1cc2cc(Nc3nc(N4CC5(CC[C@@H](Oc6ccc7c(C8CCC(=O)NC8=O)nn(C)c7c6)[C@@H](C)C5)C4)ncc3Cl)cnc2n(C(C)C)c1=O (relative stereo) [Compound 185b]"
assay_result = "< 10 nM"

[[record]]
compound = "CNC(=O)COc1cc2cc(Nc3nc(N4CCC(CN5CCN(c6ccc7c(C8CCC(=O)NC8=O)nn(C)c7c6)CC5)CC4)ncc3Cl)cnc2n(C)c1=O (stereo not drawn)"
assay_result = "< 10 nM"

[[record]]
compound = "CNC(=O)COc1cc2cc(Nc3nc(N4CCN(C[C@@H]5CCN(c6ccc7c(C8CCC(=O)NC8=O)nn(C)c7c6)C5)CC4)ncc3Cl)cnc2n(C(C)C)c1=O (stereo partly drawn) [Compound 228a]"
assay_result = "< 10 nM"


Give the reported value of DC50 for this record: CNC(=O)COc1cc2cc(Nc3nc(N4CCN(CC5CCN(c6cccc7c(C8CCC(=O)NC8=O)nn(C)c67)CC5)CC4)ncc3Cl)cnc2n(C)c1=O (stereo not drawn)
< 10 nM

Give the reported value of DC50 for this record: CNC(=O)COc1cc2cc(Nc3nc(N4CCN(C[C@@H]5CCN(c6ccc7c(C8CCC(=O)NC8=O)nn(C)c7c6)C5)[C@H](C)C4)ncc3Cl)cnc2n(C(C)C)c1=O (stereo partly drawn) [Compound 216d]
< 10 nM

Give the reported value of DC50 for this record: CNC(=O)COc1cc2cc(Nc3nc(N4CCC(CN5CCN(c6cccc7c(C8CCC(=O)NC8=O)nn(C)c67)[C@H](C)C5)CC4)ncc3Cl)cnc2n(C(C)C)c1=O (stereo partly drawn) [Compound 169b]
< 10 nM

Give the reported value of DC50 for this record: CNC(=O)COc1cc2cc(Nc3nc(N4CCC(CN5CC6CC(C5)N6c5cccc6c(C7CCC(=O)NC7=O)nn(C)c56)CC4)ncc3Cl)cnc2n(C(C)C)c1=O (stereo not drawn)
10 to 100 nM

Give the reported value of DC50 for this record: CNC(=O)COc1cc2cc(Nc3nc(N4CCC5(CC4)CN(CC4CCN(c6ccc7c(C8CCC(=O)NC8=O)nn(C)c7c6)CC4)C5)ncc3Cl)cnc2n(C)c1=O (stereo not drawn)
< 10 nM
